# measurementDescription: solubility comparison test in water and mannitol solutions
# Format: physicochemical
# settings: Solubility in 2% of mannitol solution
testReadout: solubility

Reported solubility for CC[C@H](C)[C@H](NC(=O)[C@H](CC(C)C)NC(=O)[C@H](CCC(N)=O)NC(=O)[C@@H](NC(=O)[C@@H](NC(=O)[C@H](CC(C)C)NC(=O)[C@H](C)NC(=O)[C@H](CO)NC(=O)[C@H](CCCCN)NC(=O)CNC(=O)[C@@H](NC(=O)CNC(=O)[C@H](CC(=O)O)NC(=O)[C@H](C)NC(=O)CNC(=O)[C@@H](NC(=O)[C@@H](NC(=O)[C@@H](N)CCCCN)C(C)C)C(C)C)C(C)C)[C@@H](C)O)[C@@H](C)CC)C(=O)N[C@@H](CCC(N)=O)C(=O)N[C@@H](CC(N)=O)C(=O)N[C@@H](Cc1c[nH]cn1)C(=O)O [GWMI01] was ≥ 1000 µg/mL

----------
# measurementDescription: solubility comparison test in water and mannitol solutions
# Format: physicochemical
# settings: water; read-out: Solubility in water
Ends that are not written are not given here.
Each entry below carries its reported solubility.

Some sequences with recorded solubility:
YKQLTIQVLLDRLVLQRLYPLAIQIKK [YMZH10]
300 µg/mL
SVFGDRITGETIRSQNVMAAASK [WKYE17]
< 100 µg/mL

GET /value?item= KLTLASWGPKMVLLRLEHQFAVGK [YMZH14] &field=solubility returns 300 µg/mL

Input TSLKGEIAFDPRRAYYLWF [LXJI54, TSLKGEIAFDPRRAYYLWF] . Output solubility: < 100 µg/mL

The measured solubility associated with KKKKFVALVLSTLHMLTYGWTRAFEESRYK [ZZJI44] reads < 100 µg/mL

Entry DIQDLKTCIASTTQNIEQKKK [WJIA11] — recorded solubility = < 100 µg/mL

response.value for KKKGQQLSGVNAIYFYADQIYLSAGVPEEH [GWMI10] (field: solubility) = < 100 µg/mL

Recorded solubility (sequence FHDQPHLKRKAVCSFQIYAVPWQGT [HMZH51] ): < 2000 µg/mL

Item: KEQMMREKEKLMLRLQDYEEKTKK [ZZJI58] | solubility: < 100 µg/mL

----------
# measurementDescription: solubility comparison test in water and mannitol solutions
# Type: physicochemical
# settings: Solubility in 1% of mannitol solution
testReadout: solubility

Documented solubility of CC[C@H](C)[C@H](NC(=O)[C@H](CC(C)C)NC(=O)[C@H](CCC(N)=O)NC(=O)[C@@H](NC(=O)[C@@H](NC(=O)[C@H](CC(C)C)NC(=O)[C@H](C)NC(=O)[C@H](CO)NC(=O)[C@H](CCCCN)NC(=O)CNC(=O)[C@@H](NC(=O)CNC(=O)[C@H](CC(=O)O)NC(=O)[C@H](C)NC(=O)CNC(=O)[C@@H](NC(=O)[C@@H](NC(=O)[C@@H](N)CCCCN)C(C)C)C(C)C)C(C)C)[C@@H](C)O)[C@@H](C)CC)C(=O)N[C@@H](CCC(N)=O)C(=O)N[C@@H](CC(N)=O)C(=O)N[C@@H](Cc1c[nH]cn1)C(=O)O : ≥ 1000 µg/mL

----------
# measurementDescription: solubility comparison test in water and mannitol solutions
# Assay type: physicochemical
# settings: 1% of mannitol solution; read-out: Solubility in 1% of mannitol solution
Ends that are not written are not given here.
Form field: solubility (one value per entry).

Consider the worked cases shown below.
KKKKFVALVLSTLHMLTYGWTRAFEESRYK [ZZJI44]
≥ 1000 µg/mL
KEQMMREKEKLMLRLQDYEEKTKK [ZZJI58]
≥ 1000 µg/mL

// sample SRKLEDYGEQKSMSISTAKRLAEFLGDQK [HMZH59] , its solubility was ≥ 1000 µg/mL

// DIQDLKTCIASTTQNIEQKKK [WJIA11] : solubility value = ≥ 1000 µg/mL

Kindly note the recorded solubility for KKKGQQLSGVNAIYFYADQIYLSAGVPEEH [GWMI10] , which is ≥ 1000 µg/mL

Note to self: solubility recorded for KLVFVRKSLNRIEFRECREEILKFLKK [GWMI13] was ≥ 1000 µg/mL

// field: solubility; key: PGWSLTLGLRCSSRLGLPK [LYLI37, PGWSLTLGLRCSSRLGLPK] ; value = ≥ 1000 µg/mL
